# target.system: Hexose transporter 1 (Plasmodium falciparum) (UniProt O97467)
# protocol: ST_JUDE_LEISH: Cytotoxicity at 2uM final concentration against transgenic Leishmania Mexicana promastigotes LmPfHT that are glucose transport deficient and complemented with the Plasmodium falciparum hexose transporter. Activity is measured by DNA content using SYBR green in vitro
# Type: functional
quantity.name: inhibition (%)

molecule: Fc1ccc2[nH]c(-c3ccc(-c4ccc(CNCCN5CCNCC5)cc4)s3)nc2c1
unit.abbreviation: %
number: 1.98
//
molecule: CC(C)C[C@H](Nc1ccnc(NCC2CCCCC2)n1)C(=O)NCCc1ccccc1
unit.abbreviation: %
number: 0.57
//
molecule: CC(C)(C)c1ccc(NC(=O)c2cccc(CN3CCCN(CC4CCCCC4)CC3)c2)cc1
unit.abbreviation: %
number: 1.77
//
molecule: O=C(Cc1c[nH]cn1)Nc1cccc(-c2ccc(-c3nc4cc(C(F)(F)F)ccc4[nH]3)cc2)c1
unit.abbreviation: %
number: 3.75
//
molecule: O=C(N[C@@H](Cc1ccccc1)C(=O)NC1CCCCC1)c1ccc(O)c(-c2ccc(Cl)c(Cl)c2)c1
unit.abbreviation: %
number: 0.22
//
molecule: N#Cc1ccc(-c2ccc(C(=O)NCCCCN3CCC(c4cn(CCO)c5ccccc45)CC3)cc2)cc1
unit.abbreviation: %
number: -0.13
//
molecule: Cc1ccc(O)cc1Nc1ccnc2cc(-c3cccc(CNCCS(C)(=O)=O)c3)ccc12
unit.abbreviation: %
number: 0.12
//
molecule: Cc1cc(N[C@@H](CC(C)C)C(=O)NCCCOC(C)C)nc(NCCc2ccc(F)cc2)n1
unit.abbreviation: %
number: 1.92
//
molecule: CC(O)C1CCCCN1C(=O)c1ccc(-c2cccc(-c3nc4cc(F)ccc4[nH]3)c2)cc1 (centres undefined)
unit.abbreviation: %
number: 2.87
//
molecule: COc1cc(Cc2cnc3nc(N)nc(N)c3c2C)cc(OC)c1OC
unit.abbreviation: %
number: 1.49
//
molecule: O=C(/C=C/c1ccc(Cl)c(Cl)c1)NCCCCCN1CCN(C(=O)Nc2ccc(Cl)c(C(F)(F)F)c2)CC1
unit.abbreviation: %
number: 0.61
//
molecule: CC(C)(C)c1ccc(NC(=O)c2ccc(CN3CCCN(Cc4cccc(C#N)c4)CC3)cc2)cc1
unit.abbreviation: %
number: 7.31
//
molecule: O=C(Nc1ccc(OC2CCN(Cc3ccco3)C2)c(Cl)c1)c1ccc2ncccc2c1 (centres undefined)
unit.abbreviation: %
number: -3.49
//
molecule: CC(=O)c1c(Cc2cccc(C(F)(F)F)c2)c[nH]c1C
unit.abbreviation: %
number: 3.6
//
molecule: O=S(=O)(c1ccccc1C(F)(F)F)C1CC2CCC(C1)N2S(=O)(=O)c1ccc(Cl)c(C(F)(F)F)c1 (centres undefined)
unit.abbreviation: %
number: 2.35
//
molecule: CN(C)c1ccc(NC(=O)Nc2ccnc3ccc(Br)cc23)cc1
unit.abbreviation: %
number: 3.91
//
molecule: CC(C)C[C@H](NC(=O)c1cc2ccccc2s1)C(=O)N[C@H]1CCN(Cc2ccc(OC3CCN(C)C3)c(Cl)c2)C1 (some centres undefined)
unit.abbreviation: %
number: 2.37
//
molecule: COc1cc2ncnc(Nc3ccc(OCc4ccccc4Br)c(Cl)c3)c2cc1OC
unit.abbreviation: %
number: 1.28
//
molecule: Cc1cc2c(cc1C(F)(F)F)N(C(=O)Nc1cc(C(=O)NCCN(C)C)cc(C(F)(F)F)c1)CC2
unit.abbreviation: %
number: 2.66
